assay_summary: Metabolic stability in rat liver microsomes
Assay type: in vitro ADME
MET means recorded Hepatic extraction ratio EH Rat is 0.4 or above; NOT MET means it is below 0.4.

Please review the following examples before continuing.
In [3]: df
Out[3]:
                                   compound    label
0  C[C@H]1[C@H](N2C=CS(=O)(=O)CC2)O[C@@H]2O[C@@]3(C)CC[C@H]4[C@H](C)CC[C@@H]1[C@@]24OO3 [M1 12]      MET
1  CO[C@H]1O[C@@H]2O[C@@]3(C)CC[C@H]4[C@H](C)CC[C@@H]([C@H]1C)[C@@]24OO3 [Artemether 3, artemether]      MET
2  C[C@H]1[C@H](N2CCSCC2)O[C@@H]2O[C@@]3(C)CC[C@H]4[C@H](C)CC[C@@H]1[C@@]24OO3 [Artemiside 5, artemiside]      MET
3  C[C@@H]1CC[C@H]2[C@@H](C)C(=O)N[C@@H]3O[C@@]4(C)CC[C@@H]1[C@]32OO4 [11-Aza-artemisinin 11, 11-aza-artemisinin]  NOT MET

Next item in the queue.
Prompt: Say whether C[C@H]1[C@H](N2CCS(=O)(=O)CC2)O[C@@H]2O[C@@]3(C)CC[C@H]4[C@H](C)CC[C@@H]1[C@@]24OO3 [Artemisone 6, artemisone] shows Hepatic extraction ratio EH Rat of 0.4 or more.
Response: MET

Every entry's value here was drawn from paper PMC8284440.
